species on record: Homo sapiens; experiment: Inhibition of alpha-chymotrypsin (unknown origin) using N-succinyl-L-phenylalanine-p-nitroanilide as substrate at 500 uM preincubated for 25 mins by microplate reader method
Parameter: inhibition

get_value(item= "Clc1ccc2nc(-c3cccnc3)[nH]c2c1" , readout=inhibition) returns > 50%

Next:
get_value(item= "Cc1ccc(-c2nc3cc(Cl)ccc3[nH]2)cc1" , readout=inhibition) returns < 50%

---

experiment: Competitive inhibition of alpha-chymotrypsin (unknown origin) using N-succinyl-L-phenylalanine-p-nitroanilide as substrate; parameters: species or system Homo sapiens
Each entry below carries its reported Ki.
Just the number please, in µM, no unit attached.

get_value(item= "Cn1c(-c2ccco2)nc2ccc(Cl)cc21" , readout=Ki) returns 71.4

get_value(item= "Clc1ccc2nc(-c3c(Cl)cccc3Cl)[nH]c2c1" , readout=Ki) returns 99.8

get_value(item= "Oc1ccc(-c2nc3ccc(Cl)cc3[nH]2)c(O)c1" , readout=Ki) returns 33.3

get_value(item= "Clc1ccc2nc(-c3cccc4ccccc34)[nH]c2c1" , readout=Ki) returns 25.3

get_value(item= "COc1ccc(-c2nc3ccc(Cl)cc3[nH]2)cc1OC" , readout=Ki) returns 16.4

get_value(item= "Fc1ccccc1-c1nc2ccc(Cl)cc2[nH]1" , readout=Ki) returns 79.3

get_value(item= "Clc1ccc(-c2nc3ccc(Cl)cc3[nH]2)c(Cl)c1" , readout=Ki) returns 39.6

get_value(item= "CN(C)c1ccc(-c2nc3ccc(Cl)cc3[nH]2)cc1" , readout=Ki) returns 17.5

Next:
get_value(item= "CCOc1cc(-c2nc3ccc(Cl)cc3[nH]2)ccc1O" , readout=Ki) returns 17.3

get_value(item= "Clc1ccc2nc(-c3cccnc3)[nH]c2c1" , readout=Ki) returns 50.1

---

species on record: Homo sapiens; assay: Inhibition of alpha-chymotrypsin (unknown origin) using N-succinyl-L-phenylalanine-p-nitroanilide as substrate at 500 uM preincubated for 25 mins by microplate reader method
Each entry below carries its reported inhibition.

// below: answered compounds
get_value(item= "Oc1ccc(-c2nc3ccc(Cl)cc3[nH]2)c(O)c1" , readout=inhibition) returns > 50%

get_value(item= "CC(C)c1ccc(-c2nc3ccc(Cl)cc3[nH]2)cc1" , readout=inhibition) returns < 50%

Turning now to a further record.
get_value(item= "O=[N+]([O-])c1ccc(-c2nc3cc(Cl)ccc3[nH]2)cc1" , readout=inhibition) returns < 50%

---

species: Homo sapiens; assay: Inhibition of alpha-chymotrypsin (unknown origin) using N-succinyl-L-phenylalanine-p-nitroanilide as substrate at 500 uM preincubated for 25 mins by microplate reader method
Parameter: inhibition

// below: answered compounds
get_value(item= "Cn1c(-c2ccco2)nc2ccc(Cl)cc21" , readout=inhibition) returns > 50%

get_value(item= "Clc1ccc2[nH]c(-c3ccccc3)nc2c1" , readout=inhibition) returns < 50%

get_value(item= "Clc1ccc2nc(-c3c(Cl)cccc3Cl)[nH]c2c1" , readout=inhibition) returns > 50%

Next:
get_value(item= "O=[N+]([O-])c1ccc(Cl)c(-c2nc3ccc(Cl)cc3[nH]2)c1" , readout=inhibition) returns < 50%

get_value(item= "Clc1ccc2[nH]c(/C=C/c3ccccc3)nc2c1" , readout=inhibition) returns < 50%

get_value(item= "Fc1ccccc1-c1nc2ccc(Cl)cc2[nH]1" , readout=inhibition) returns > 50%

get_value(item= "COc1cccc(-c2nc3ccc(Cl)cc3[nH]2)c1" , readout=inhibition) returns > 50%

get_value(item= "Oc1ccccc1-c1nc2cc(Cl)ccc2[nH]1" , readout=inhibition) returns < 50%

get_value(item= "Clc1ccc(-c2nc3ccc(Cl)cc3[nH]2)c(Cl)c1" , readout=inhibition) returns > 50%

get_value(item= "CCOc1cc(-c2nc3ccc(Cl)cc3[nH]2)ccc1O" , readout=inhibition) returns > 50%

get_value(item= "Clc1ccc2nc(-c3cccc(Br)c3)[nH]c2c1" , readout=inhibition) returns < 50%
